- Target or system: JAK2 (Homo sapiens, UniProt O60674)
- Construct: 5 μl of catalytic domain recombinant Kinase enzyme+Tyr peptide substrate (Invitrogen, Calif.); purchased Invitrogen
- Sequence (O60674 849-1124 limits assumed): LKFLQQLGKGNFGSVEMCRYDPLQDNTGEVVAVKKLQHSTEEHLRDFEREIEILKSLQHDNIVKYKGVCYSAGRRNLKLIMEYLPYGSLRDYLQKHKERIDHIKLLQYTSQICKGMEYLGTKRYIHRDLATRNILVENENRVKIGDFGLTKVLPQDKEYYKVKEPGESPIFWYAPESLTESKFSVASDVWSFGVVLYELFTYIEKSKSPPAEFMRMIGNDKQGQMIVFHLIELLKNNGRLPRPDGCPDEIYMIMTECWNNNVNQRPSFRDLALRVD
- Assay comment: Z'-LYTE kinase assay, JAK2 tyrosine phosphorylation activity
- Format: biochemical
- Procedure: JAK and TYK2 tyrosine phosphorylation activity is measured using the Z′-LYTE™ Technology developed by Invitrogen Corporation (Carlsbad, Calif.). For JAK1, JAK2 and JAK3 the Z′-LYTE™ Kinase Assay Kit-Tyr6 Peptide (part number PV4122) was used. […] The Z′-LYTE™ biochemical assay employs a fluorescence resonance energy transfer (FRET) coupled-enzyme format and is based on the differential sensitivity of phosphorylated and non-phosphorylated peptides to proteolitic cleavage. […]
Endpoint: IC50

Some compounds with known IC50 results, for comparison:
Measured IC50 of NC(=O)c1cnc(Nc2cccc(NC(=O)N3CCOCC3)c2)cc1NCc1cccc(F)c1 : 10 to 100 nM

Looking up CN(C(=O)N1CCCC1)c1cc(Nc2ncc(C(N)=O)c(NCc3cccc(F)c3)n2)ccc1Cl , I found its IC50 recorded as > 1000 nM

New cases:
IC50 reading for C[C@@H](Nc1nc(Nc2ccc(Cl)c(NC(=O)N3CCCC3)c2)ncc1C(N)=O)c1ccccc1 : 100 to 1000 nM

The reported value for CNC(=O)Nc1cc(Nc2ncc(C(N)=O)c(NCc3ccccc3)n2)ccc1C in terms of IC50 is 10 to 100 nM

Quick note, IC50 for NC(=O)c1cnc(Nc2ccc(F)c(NC(=O)N3CCCC3)c2)cc1N[C@H](CO)c1ccccc1 landed at > 1000 nM

Entry CC(=O)Nc1cccc(Nc2ncc(C(N)=O)c(NCCC(N)=O)n2)c1 — recorded IC50 = 100 to 1000 nM

// CC[C@@H](C)Nc1nc(Nc2ccc(Cl)c(NC(=O)N3CCCC3)c2)ncc1C(N)=O : IC50 value = 10 to 100 nM

IC50 reported for this compound CC(=O)Nc1cccc(Nc2ncc(C(N)=O)c(N[C@@H](CO)CC(C)C)n2)c1 : 100 to 1000 nM

* * *

# maps each entry to its pIC50
- Target or system: TYK2 (Homo sapiens)
- Construct: 5 μl of catalytic domain recombinant Kinase enzyme+Tyr peptide substrate (Invitrogen, Calif.)
- Sequence (P29597 897-1176 limits assumed): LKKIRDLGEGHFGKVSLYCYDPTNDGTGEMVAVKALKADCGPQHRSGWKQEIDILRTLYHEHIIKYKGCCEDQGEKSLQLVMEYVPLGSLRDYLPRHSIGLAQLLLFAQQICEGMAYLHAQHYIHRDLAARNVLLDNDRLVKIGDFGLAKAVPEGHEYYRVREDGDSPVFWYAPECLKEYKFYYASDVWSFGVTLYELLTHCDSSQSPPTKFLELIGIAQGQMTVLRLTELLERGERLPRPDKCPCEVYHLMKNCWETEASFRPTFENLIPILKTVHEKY
- Assay comment: Z'-LYTE kinase assay, TYK2 tyrosine phosphorylation activity
pIC50: −log10 of the molar value.

Consider N#CCC(=O)Nc1cccc(Nc2ncc(C(N)=O)c(NCc3cccc(F)c3)n2)c1 . Its measured pIC50 is 8.00 to 9.00

pIC50 recorded for this compound, CNC(=O)Nc1cccc(Nc2ncc(C(N)=O)c(NCc3ccccc3F)n2)c1 , is 8.00 to 9.00

Recorded pIC50 (compound C[C@@H](Nc1nc(Nc2cccc(NC(=O)N3CCCC3)c2)ncc1C(N)=O)c1ccccc1 ): 7.00 to 8.00

Record CC(=O)Nc1cc(Nc2ncc(C(N)=O)c(Nc3cccc4nsnc34)n2)ccc1OCCN(C)C , field pIC50: 7.00 to 8.00

Sample CC(=O)Nc1cccc(Nc2cc(NCc3ccccc3)c(C(N)=O)cn2)c1 ; pIC50 observed: 6.00 to 7.00
